Tested on: FU97 (Gastric Carcinoma)
procedure summary: combination Emax (second highest fraction inhibited in the dose matrix, 72 h); higher = more inhibition; extreme values may be limits of the assay

- compound: "C=CCn1c(=O)c2cnc(Nc3ccc(N4CCN(C)CC4)cc3)nc2n1-c1cccc(C(C)(C)O)n1 [AZD1775] + CCc1c2c(nc3ccc(O)cc13)-c1cc3c(c(=O)n1C2)COC(=O)[C@]3(O)CC [SN-38] (first compound max 1 µM, partner max 0.3 µM)"
  combination Emax: 0.391
- compound: "O=C(c1cc(Cc2n[nH]c(=O)c3ccccc23)ccc1F)N1CCN(C(=O)C2CC2)CC1 [Olaparib] + CN(CC[C@H](CSC1=CC=CC=C1)NC2=C(C=C(C=C2)S(=O)(=O)NC(=O)C3=CC=C(C=C3)N4CCC(CC4)[C@H](C5=CC=CC=C5C6=CC=C(C=C6)Cl)O)S(=O)(=O)C(F)(F)F)CCO [AZD4320] (first compound max 10 µM, 7x7, partner max 1 µM)"
  combination Emax: 0.212
- compound: "CC1(C)CCC(CN2CCN(c3ccc(C(=O)NS(=O)(=O)c4ccc(NCC5CCOCC5)c([N+](=O)[O-])c4)c(Oc4cnc5[nH]ccc5c4)c3)CC2)=C(c2ccc(Cl)cc2)C1 [Venetoclax] + C=CCn1c(=O)c2cnc(Nc3ccc(N4CCN(C)CC4)cc3)nc2n1-c1cccc(C(C)(C)O)n1 [AZD1775] (first compound max 1 µM, partner max 1 µM)"
  combination Emax: 0.626
- compound: "CC1(C)CCC(CN2CCN(c3ccc(C(=O)NS(=O)(=O)c4ccc(NCC5CCOCC5)c([N+](=O)[O-])c4)c(Oc4cnc5[nH]ccc5c4)c3)CC2)=C(c2ccc(Cl)cc2)C1 [Venetoclax] + Cn1cnc2c(F)c(Nc3ccc(Br)cc3Cl)c(C(=O)NOCCO)cc21 [Selumetinib] (first compound max 1 µM, 7x7, partner max 3 µM)"
  combination Emax: 0.314
- compound: "COc1cccc(OCCCN)c1-c1cc(Nc2cnc(C#N)cn2)n[nH]1 [Prexasertib] + C[C@@H]1COCCN1C2=NC(=NC(=C2)C3(CC3)[S@](=N)(=O)C)C4=C5C=CNC5=NC=C4 [AZD6738] (first compound max 1 µM, 7x7, partner max 10 µM)"
  combination Emax: 0.308
